# protein stability index values compiled below
B1: PBXIP1 (parent)
chain: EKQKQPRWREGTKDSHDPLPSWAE

Variants of: B1
Experiment: protein stability index of a GFP-peptide fusion (GPS, HEK-293T) (PSI 1-6); higher = more stable;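 further: lentivirally expressed fusions sorted by FACS into six bins by GFP to DsRed ratio, PSI derived from sequencing read proportions per bin multiplied by bin number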
Settings: c terminus: a fixed tail appended
Enter the number alone.

Field: example entries. Status: answers known.
Provide measured protein stability index value, entry: EKQKQPRWREGTKDSHDPLPIWAE [S21I]
2.56

Provide measured protein stability index value, entry: EKQKQPRWMEGTKDSHDPLPSWAE [R9M]
2.35

Provide measured protein stability index value, entry: EKQKQPRWREGTKDSHDPGPSWAE [L19G]
2.56

Provide measured protein stability index value, entry: EKQKQPRWREGTKDQHDPLPSWAE [S15Q]
1.8

Provide measured protein stability index value, entry: EKQHQPRWREGTKDSHDPLPSWAE [K4H]
2.66

Provide measured protein stability index value, entry: EKQCQPRWREGTKDSHDPLPSWAE [K4C]
2.63

Provide measured protein stability index value, entry: EKQKQPRWCEGTKDSHDPLPSWAE [R9C]
1.39

Provide measured protein stability index value, entry: EKQKQPRWIEGTKDSHDPLPSWAE [R9I]
1.89

Others:
Provide measured protein stability index value, entry: EKQKQPRWREGRKDSHDPLPSWAE [T12R]
2.71

Provide measured protein stability index value, entry: EKQKQPRWREGYKDSHDPLPSWAE [T12Y]
1.01

Provide measured protein stability index value, entry: EKQKQPRWREGTKDSHDPLPSIAE [W22I]
5.01
